assay: Pharmacokinetic experiment in rats after gavage; type: in vivo; conditions: rat, blood, po; male SD rats, gavage 2 mg·kg^−1; read-out: oral half-life (t112) (converted)
measured metric: half-life

half-life reported for this molecule CCCCOC(=O)[N-]S(=O)(=O)c1cccc(-c2nc3c(CCC)nn(C)c3c(=O)[nH]2)c1.[K+] [potassium salt crystal form B] : 2.3 h

###

assay: Dynamic solubility test in water, SGF, FaSSIF, FeSSIF at 37° C.; type: physicochemical; conditions: thermodynamic from solid, water, read-out: solubility in water (the highest)
measured metric: solubility

solubility in this record for CCCCOC(=O)[N-]S(=O)(=O)c1cccc(-c2nc3c(CCC)nn(C)c3c(=O)[nH]2)c1.[K+] [potassium salt crystal form B] : ≤ 12.9 mg/mL
